Provenance of the data: patent US20240116985A1

# Target entity: full-length beta-Catenin (Uniprot ID P35222) (Homo sapiens (Human)) (UniProt P35222)
# Sequence (P35222 whole entry): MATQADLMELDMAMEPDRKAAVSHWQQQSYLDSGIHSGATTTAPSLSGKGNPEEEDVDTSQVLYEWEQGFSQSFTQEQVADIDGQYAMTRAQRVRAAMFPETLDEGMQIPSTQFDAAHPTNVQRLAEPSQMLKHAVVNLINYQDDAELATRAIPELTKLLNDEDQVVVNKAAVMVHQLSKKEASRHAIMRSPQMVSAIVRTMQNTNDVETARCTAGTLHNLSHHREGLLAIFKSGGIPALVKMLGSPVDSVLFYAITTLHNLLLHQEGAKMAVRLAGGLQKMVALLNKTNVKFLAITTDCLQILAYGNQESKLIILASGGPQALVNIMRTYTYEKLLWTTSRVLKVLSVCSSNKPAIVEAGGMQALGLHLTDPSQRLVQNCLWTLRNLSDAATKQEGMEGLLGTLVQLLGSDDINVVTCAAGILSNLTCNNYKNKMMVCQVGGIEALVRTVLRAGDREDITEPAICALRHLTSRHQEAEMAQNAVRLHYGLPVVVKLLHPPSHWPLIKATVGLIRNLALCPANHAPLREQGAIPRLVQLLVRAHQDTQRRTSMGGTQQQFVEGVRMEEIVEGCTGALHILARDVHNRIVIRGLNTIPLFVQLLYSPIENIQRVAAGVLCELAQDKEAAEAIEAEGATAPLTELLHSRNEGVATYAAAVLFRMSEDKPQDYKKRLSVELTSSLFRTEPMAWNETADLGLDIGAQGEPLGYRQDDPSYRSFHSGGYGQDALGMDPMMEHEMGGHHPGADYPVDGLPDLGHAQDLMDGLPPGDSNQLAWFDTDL
# Experimental details: fluorescence polarization competition; full-length beta-catenin + 5FAM-TCF4(10-53) probe
Starred links: 1 amine or outer side, 2 acyl side, 3 side chain; linkers in the order of their positions; H or OH if unused. Positions of bridges follow the written chain, without caps; N, C: chain ends. Non-standard residues stand in square brackets, D forms with d. Primed or numbered codes have the meaning given here. *: point of attachment. PyrS2″ = (S)-3-amino-1-((pent-4-en-1-yloxy)carbonyl)pyrrolidine-3-carboxylic acid (stapling residue), C=CCCCOC(=O)N1CC[C@@](N[*:1])(C(=O)[*:2])C1; B5(5) = 2,2-bis(4-pentenyl)glycine, 2-amino-2-(pent-4-en-1-yl)hept-6-enoic acid (stitching residue), C=CCCCC(CCCC=C)(N[*:1])C(=O)[*:2]; PyrS2 = (S)-3-amino-1-((pent-4-en-1-yloxy)carbonyl)pyrrolidine-3-carboxylic acid, C=CCCCOC(=O)N1CC[C@@](N[*:1])(C(=O)[*:2])C1; B5(3) = 2,2-bis(4-pentenyl)glycine (stitching residue), C=CCCCC(CCCC=C)(N[*:1])C(=O)[*:2]; Phe(2-Cl) = N[C@@H](Cc1ccccc1Cl)C(=O)O; 2Nal = N[C@@H](Cc1ccc2ccccc2c1)C(=O)O; Bta = N[C@@H](Cc1csc2ccccc12)C(=O)O; αAllylPro = C=CC[C@@]1(C(=O)O)CCCN1; tBuAla = CC(C)(C)C[C@H](N)C(=O)O; 3Thi = N[C@@H](Cc1ccsc1)C(=O)O; Thr(ol) = C[C@@H](O)[C@H](N)CO; iPr = CC(C)*
Measurement type: EC50 (nM)

Binder	EC50 / nM
Ac-[αAllylPro]D[tBuAla][B5(5)]DDAAFL[PyrS2][3Thi][Bta][Thr(ol)] (staple 1-4, 4-11) [I-1302]	45
Ac-[αAllylPro]D[tBuAla][B5(3)]DTAA[2Nal]T[PyrS2″]F[Bta]S-NH2 (staple 1-4; staple 4-11 (inferred); not fully specified; printed as Ac-PL3-Asp-Npg-B5-Asp-Thr-Ala-Ala-2NapA-Thr-PyrS2-Phe-BztA-Ser-NH2) [I-1267]	181

(1) Ac-[αAllylPro]D[tBuAla][B5(5)]DEAAFK(iPr)[PyrS2][Phe(2-Cl)][Bta]L-NH2 (staple 1-4, 4-11) [I-1283]
(2) XDXXDDAAFTXFXT (not fully specified; as printed: Ac-PL3-Asp-Npg-B5-Asp-Asp-Ala-Ala-Phe-Thr-S10-2C1F-BztA-Thr-NH2; stapled) [I-1262]
Between 1 and 2 , which one has the lower reported EC50 value? In your reply, give the label of the chosen option.
1
(1: 26 nM, 2: 1120 nM)
